Where do the numbers come from? From PubChem BioAssay AID2283176.

Target: human MAP Kinase-Activated Protein Kinase 5 (MAPKAPK5), MAPKAPK5 (gene 8550) (UniProt Q8IW41)
Sequence (Q8IW41 whole entry, looked up): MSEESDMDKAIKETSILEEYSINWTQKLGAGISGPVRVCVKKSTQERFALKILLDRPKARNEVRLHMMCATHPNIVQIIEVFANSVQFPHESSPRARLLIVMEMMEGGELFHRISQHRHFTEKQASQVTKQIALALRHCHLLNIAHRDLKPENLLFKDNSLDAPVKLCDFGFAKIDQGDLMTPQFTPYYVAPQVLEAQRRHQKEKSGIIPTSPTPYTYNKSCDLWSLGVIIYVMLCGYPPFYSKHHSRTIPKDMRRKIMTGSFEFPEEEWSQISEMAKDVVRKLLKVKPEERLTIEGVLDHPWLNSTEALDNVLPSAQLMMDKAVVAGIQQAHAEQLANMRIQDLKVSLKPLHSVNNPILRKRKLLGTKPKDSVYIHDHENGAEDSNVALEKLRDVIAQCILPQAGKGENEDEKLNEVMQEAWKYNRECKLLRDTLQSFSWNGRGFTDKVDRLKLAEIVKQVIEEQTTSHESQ
Test: NVS_ENZ_hMAPKAPK5: NovaScreen (NVS) Enzymatic Assay for human MAP Kinase-Activated Protein Kinase 5 (MAPKAPK5)
Description: NVS_ENZ_hMAPKAPK5 is a biochemical, single-readout assay that uses extracted gene-proteins in a cell-free assay. Measurements were taken 1 hour after chemical dosing in a 384-well plate.NVS_ENZ_hMAPKAPK5 is one of one assay component(s) measured or calculated from the NVS_ENZ_hMAPKAPK5 assay. […] This assay endpoint, NVS_ENZ_hMAPKAPK5, was analyzed in the positive analysis fitting direction relative to DMSO as the negative control and baseline of activity. […]
Inconclusive results are not listed. Activity calls are given as the source filed them. How the source made its calls: active means hit-call score of the fitted dose curve at least 0.9, where 1 is the maximum; inconclusive means response in the unintended direction; inactive means score below 0.9.
Observed property: AC50

>  <Smiles data>
CCOC(=O)[C@H](C)Oc1ccc(Oc2nc3ccc(Cl)cc3o2)cc1

>  <Observed property>
AC50

>  <Result>
inactive

$$$$
>  <Smiles data>
N#CSCSc1nc2ccccc2s1

>  <Observed property>
AC50

>  <Result>
14.7 µM (active)

$$$$
>  <Smiles data>
O=C(Nc1ccc([N+](=O)[O-])cc1Cl)c1cc(Cl)ccc1O

>  <Observed property>
AC50

>  <Result>
inactive

$$$$
>  <Smiles data>
S=C(S)NCCNC(=S)S.[Mn+2].[S-]C([S-])=NCCN=C([S-])[S-].[Zn+2]

>  <Observed property>
AC50

>  <Result>
2.41 µM (active)

$$$$
